Test system: A549/ATCC NSCLC
test-details: NCI-60 one-dose screen, 48 h (100 = growth as untreated, 0 = no growth, -100 = all killed)
condition-label: 10 µM unless noted
This is part of a sample that, as a whole, favours compounds with a hit. Of some 83,000 tested, about 20% had one in any assay.
For each record, write down the corresponding growth.
Give bare numbers, in %.

Solved entries (count: 2):
{"columns": ["compound", "test-result"],
 "data": [
  ["COc1ccc2nc3nc4ccc[nH]c4cc3c2c1", 91.2],
  ["Cc1nccc2c3ccc(OCc4cn(-c5ccc(Br)cc5)nn4)cc3n(CC(C)C)c12", 41.1]
]}

Pending compound:
Query: Report growth for COc1ccc2c(c1)Oc1nc(N)c(C#N)c(N)c1C2Sc1ccc(SC)cc1 (stereo not drawn) please.
Response: 85.7

====

Tested on: SNB-75 CNS
test-details: NCI-60 one-dose screen, 48 h
condition-label: 10 µM unless noted
This is part of a sample that, as a whole, favours compounds with a hit. Of some 83,000 tested, about 20% had one in any assay. Active and inactive are the calls of the source. Rule for the calls: active = growth percent below 10; inactive = the rest.
Return exactly one item of active, inactive

Query: Could you check what this test reported for `COc1ccccc1C(=O)/C=C/c1cc2cccc(OC)c2[nH]c1=O` ?
Response: inactive

Query: // query: `CCO/C=N/S(=O)(=O)c1cc2c(cc1Cl)NC=NS2(=O)=O`
Response: inactive

Query: // query: CCOC(=O)C1=C(C)n2nc(CC#N)c(C#N)c2NC1c1ccc(CC)cc1 (stereo not drawn)
Response: inactive

Query: // query: `Cc1nn(-c2ccc(-c3ccc(OC(F)(F)F)cc3)cc2)c2nc(-c3ccccc3)nc(N)c12`
Response: inactive

Query: // query: N#Cc1nc(-c2ccccc2)oc1S(=O)(=O)NCC(c1ccc(Cl)cc1)N1CCCCC1 (stereo not drawn)
Response: inactive

Query: // query: `COc1cc(-c2nn(-c3ccc(Br)cc3)cc2CO)ccc1O`
Response: inactive

Query: // query: `CCN1CCN(Cc2ccc(NC(=O)c3cccc(C#Cc4cccc5[nH]nc(N)c45)c3)cc2C(F)(F)F)CC1`
Response: active

Query: // query: `Nc1ccccc1NC(=O)c1ccc(CSc2nc(N3CCOCC3)c3cccn3n2)cc1`
Response: inactive

Query: // query: `COc1ccc2oc(=O)cc(-c3nc4ccc(N)cc4[nH]3)c2c1`
Response: inactive

Query: // query: `C(=C\c1cn(-c2ccccc2)nc1-c1ccccc1)/c1nnc(-c2c[nH]c3ccccc23)o1`
Response: inactive

Query: // query: `CC(C)NS(=O)(=O)c1cccc(-c2ccc3c(=O)n(CCCN)c4c(c3c2)C(=O)c2ccccc2-4)c1`
Response: inactive

Query: // query: `NC(=N\N=C\c1ccccc1O)/C(N)=N/N=C/c1ccccc1O`
Response: inactive

Query: // query: `O=S(=O)(Nc1nccs1)c1ccc(Nc2nc(-c3ccncc3)cs2)cc1`
Response: inactive

====

Tested on: SW-620 colon
test-details: NCI-60 one-dose screen, 48 h
condition-label: 10 µM unless noted
Compounds without any hit were thinned out: in the full panel of roughly 83,000, 20% have a hit. The source made the active and inactive calls. How the source made its calls: active means growth percent below 10; inactive means the rest.
Return exactly one item of active, inactive

Please review the entries below; each comes with its answer.
{"columns": ["molecule", "qualitative-label"],
 "data": [
  ["C#C[C@@]1(O)[C@@H](CO)O[C@@H](n2cc(I)c3c(N)ncnc32)[C@@H]1O", "active"],
  ["CN(C)CCCn1c2c(c3cc(-c4ccco4)ccc3c1=O)C(=O)c1ccccc1-2", "inactive"],
  ["COc1ccc(C(=O)c2cc(OC)c(OC)c(OC)c2)cc1OC(=O)CCl", "inactive"],
  ["CCC1=C[C@H]2CN(CCc3c([nH]c4ccccc34)[C@@](C(=O)OC)(c3cc4c(cc3OC)N(C)[C@H]3[C@@](O)(C(=O)OC)[C@H](OC(C)=O)[C@]5(CC)[C@@H]6C[C@@H]6CN6CC[C@]43[C@@H]65)C2)C1", "inactive"],
  ["CC1CCN(CCCCCOc2ccc3oc4ccccc4c(=O)c3c2)CC1", "inactive"]
]}

Query: Could you check what this test reported for `COc1cc2nc3c(=O)n(-c4ccc(C#N)cc4)cnn3c(=O)c2cc1OC` ?
Response: inactive

Query: // query: `Clc1ccc2c(NCCCNC3CCCCC3)ccnc2c1`
Response: inactive

Query: // query: `COC(=O)c1ccc(NC(=O)CSc2nc(-c3ccc(F)cc3)nc3ccccc23)cc1`
Response: inactive

Query: // query: `Cc1cccc(NC(=O)c2sc3nc4c(cc3c2N)CN(Cc2ccccc2)CC4)c1C`
Response: inactive

The measured values listed here are drawn from PubChem BioAssay (NCI).
